# Test Target: T1, Human CD19-his protein (human, UniProt P15391 20-291)
# T1 construct: bought protein; also called human CD19 protein; recombinant human CD19-His; not shown: His tag
# T1 sequence (looked up): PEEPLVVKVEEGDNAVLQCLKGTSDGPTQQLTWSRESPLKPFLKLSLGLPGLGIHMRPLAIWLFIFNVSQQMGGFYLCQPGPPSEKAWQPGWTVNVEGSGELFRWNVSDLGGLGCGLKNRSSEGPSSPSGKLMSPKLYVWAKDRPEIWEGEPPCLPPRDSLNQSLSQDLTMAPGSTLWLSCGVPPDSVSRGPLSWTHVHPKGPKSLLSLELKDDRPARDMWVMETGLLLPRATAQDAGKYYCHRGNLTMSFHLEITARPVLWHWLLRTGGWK
# Assay Info: ELISA, antibody at 0.01 nM
# label = T if OD450 >= 0.3 else F

F4.272.13 (antibody, human IgG1, V domains shown, human-murine chimeric antibody, human IgG1) VH: QVQLKESGPGLVAPSQSLSITCTVSGFSLTDYGVSWIRQPPGKGLEWLGVIWGSETTFYNSALKSRLSISKDNSKSQLFLQMNSLQADDTAIYYCAKHHYYGGSFSMDYWGQGTSVTVSS VL: DIQMTQTTSSLSASLGDRVTISCRASQDINNYLNWYQQKPDGTVKFLIYYTSRLHSGVPSRFSGSGSGTDYSLTISDLEQEDIATYFCQQGNTLPYTFGGGTKLEIK
T
F4.18.13 (antibody, human IgG1, V domains shown, human-murine chimeric antibody, human IgG1) VH: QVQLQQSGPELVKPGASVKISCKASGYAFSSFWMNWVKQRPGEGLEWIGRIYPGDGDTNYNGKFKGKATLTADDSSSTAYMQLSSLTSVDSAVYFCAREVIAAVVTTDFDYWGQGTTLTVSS VL: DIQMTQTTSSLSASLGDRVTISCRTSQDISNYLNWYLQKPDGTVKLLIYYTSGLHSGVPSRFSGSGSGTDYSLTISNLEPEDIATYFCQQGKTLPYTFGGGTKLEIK
F
F4.78.1 (antibody, human IgG1, V domains shown, human-murine chimeric antibody, human IgG1) VH: QVQIQQSGAELARPGASVKLSCKASGYTFTNYWMQWIKQRPGQGLEWIGAIYPGDGDTRYTQKFKGKATLTADKSSSTAYMQLSSLASEDSAVYYCAREEVWSPYGMDYWGQGTSVTVSS VL: QIVLTQSPAIMSASPGEKVTITCSASSSVSYMGWFQQKPGTSPKLWIYSTSNLASGVPARFSGSGSGTSYSLTISRMEAEDAATYYCQQRSIYPLTFGAGTKLELK
F
F4.191.1 (antibody, human IgG1, V domains shown, human-murine chimeric antibody, human IgG1) VH: QVQLQQPGAELVRPGASVKLSCKASGYTFTSYWINWVKQRPGQGLEWIGNIHPSDSYTNYNQKFKDKATLTVDKSSSTAYMQFSSPTSEDSAVYYCTREDYYYGSNYDAMDYWGQGTSVTVSS VL: DIVMTQSHKFMSTSVGDRVNITCKASQDVGSSVAWYQQKPGQSPKLLIYWASTRHAGVPDRFTGSGSGADFTLTISNVQSEDLADYFCQQYSTYPLTFGAGTKLELK
F

query: API: above_or_equal(metric=OD450, cutoff=0.3) for item F1-mab003 (antibody, human IgG1, V domains shown, human-murine chimeric antibody, human IgG1) VH: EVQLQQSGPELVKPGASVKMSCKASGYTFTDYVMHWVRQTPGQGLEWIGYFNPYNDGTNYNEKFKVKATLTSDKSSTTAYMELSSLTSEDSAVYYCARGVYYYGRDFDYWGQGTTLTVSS VL: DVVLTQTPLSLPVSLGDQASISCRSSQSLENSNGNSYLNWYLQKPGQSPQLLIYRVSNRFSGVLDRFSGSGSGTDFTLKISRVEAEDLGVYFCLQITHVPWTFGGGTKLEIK
result: F
